# Tested on: 786-0 renal
# experiment_description: NCI-60 one-dose screen, 48 h (100 = growth as untreated, 0 = no growth, -100 = all killed)
# experimental_parameters: 10 µM unless noted
The panel holds about 83,000 compounds, 20% with a hit somewhere; the sample as a whole holds those more often.
Recorded measurements of growth, one per entry
Kindly answer with a numeric value in %, unit omitted.

1. O=c1c2cccc3c(N4CCOCC4)ccc(c32)c2nc3ccccc3n12; 97.5
2. COc1ccc(Cn2cc(C(=O)N=Nc3c(O)[nH]c4ccc(Br)cc34)nn2)cc1; 99.6
3. CCOC(=O)c1c(C)nc2c(c1N)C(=O)C(=O)N2CCc1ccc(OC)c(OC)c1; 82.9
4. CNC1=C(Br)C(=O)c2c(C(=O)OC)c(C)nc(C)c2C1=O; 102

Next molecule, growth to be filled in.
Input: Return growth measured with 786-0 renal given this molecule: C=CCNc1nc(O)c(/C=C2\C=Nc3ncccc32)s1
Output: 4.4
